Assay: qHTS Assay for Lipid Storage Modulators in Drosophila S3 Cells; also: potency is read from the fitted curve at half-maximal effect
Conditions: BODIPY lipid droplet fluorescence, 18-24 h, cells fed with added oleic acid; series mostly up to 46.1 µM
The campaign covered roughly 320,000 compounds. About 2,100 (0.66%) were called active. About 53% were inconclusive and are not listed. Shown is part of a subset that was picked to be rich in actives.
Endpoint name: Potency

// solved cases for Potency follow
>  <Compound>
O=C1C(=Cc2cccs2)C(=O)c2ccccc21

>  <Potency>
18.4 µM (active)

$$$$
>  <Compound>
CC(=O)c1cccc(NC(=O)N2CCCCCC2)c1

>  <Potency>
inactive

$$$$
>  <Compound>
Brc1cccc(-c2nnc(-c3ccccc3)o2)c1

>  <Potency>
inactive

$$$$
>  <Compound>
O=C1/C(=C/c2cccs2)COc2ccccc21

>  <Potency>
inactive

$$$$
>  <Compound>
CCc1ccc(OCC(=O)N(C)CCC#N)c(Br)c1

>  <Potency>
inactive

$$$$

Endpoint output: Potency of O=C1C2C3C=CC(C3)C2C(=O)N1c1cccc2ccccc12 (configuration not stated) . Value? inactive

// query Potency value for entry `O=C(COC(=O)c1ccccc1Nc1ccccc1)NCc1ccccc1Cl` inactive

// query Potency value for entry `COc1cc(CN2CCc3ccc(NC(=O)CCc4ccccc4OC)cc3C2)ccc1O` inactive
